Target chain: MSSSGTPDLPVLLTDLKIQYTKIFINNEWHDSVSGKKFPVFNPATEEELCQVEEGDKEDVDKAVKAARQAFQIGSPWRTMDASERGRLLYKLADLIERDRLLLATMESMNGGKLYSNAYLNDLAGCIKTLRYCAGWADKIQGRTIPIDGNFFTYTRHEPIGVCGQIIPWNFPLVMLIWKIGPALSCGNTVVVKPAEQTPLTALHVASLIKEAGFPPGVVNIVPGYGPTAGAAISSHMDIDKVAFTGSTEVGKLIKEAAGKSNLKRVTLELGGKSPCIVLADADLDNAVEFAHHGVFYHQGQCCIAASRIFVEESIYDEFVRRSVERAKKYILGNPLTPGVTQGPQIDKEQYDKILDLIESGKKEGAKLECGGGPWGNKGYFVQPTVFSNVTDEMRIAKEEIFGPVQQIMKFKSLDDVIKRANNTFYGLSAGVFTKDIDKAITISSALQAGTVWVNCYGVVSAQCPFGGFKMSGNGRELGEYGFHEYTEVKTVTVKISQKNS
RECORDED ENDPOINT: IC50 (µM)
Please respond with the number in µM and leave the unit unwritten.

Problem: Report IC50, nothing else, for this molecule: CC(C)=CCCC(C)=CC=O [citral, 3,7-dimethyl-2,6-octadienal]
Solution: 55

---

molecular target: UniProtKB P00352; type: biochemical
RECORDED ENDPOINT: pEC50
Give only the number. pEC50 is defined as minus log10 of concentration in molar units.

Problem: Report pEC50, nothing else, for this molecule: CC/C(=C(/CC)c1ccc(O)cc1)c1ccc(O)cc1 [diethylstilbestrol]
Solution: 4.95
